Entries below carry reported Kd on CSF1R.
Provide only the numeric value, understood in µM.

In the examples that follow, each entry is paired with its recorded Kd.
- Cc1ccc(NC(=O)Nc2ccccc2F)cc1-c1ccc(C(=O)Nc2ccncc2)cc1: 2.6
- Cc1ccc(NC(=O)Nc2ccc(Cl)cc2)cc1-c1ccc(C(=O)Nc2ccncc2)cc1: 6.7
- COc1cccc(NC(=O)Nc2ccc(C)c(-c3ccc(C(=O)Nc4ccncc4)cc3)c2)c1: 3.3
- Cc1ccc(NC(=O)Nc2ccccc2)cc1-c1ccc(C(=O)Nc2ccncc2)cc1: 3.3

Qu. For Cc1ccc(NC(=O)c2ccc(Cl)cc2)cc1-c1ccc(C(=O)Nc2ccncc2)cc1 , what is its reported Kd?
Ans. 0.88
